Exercise: for every item that follows, state its recorded LAP4-GFP fluorescence (kMESF).
- PROTOCOL SUMMARY: LAP4-GFP modulation potency in yeast, dose response, cell-based, MLPCN hits, flow cytometry (AID 2745);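 also: yeast exposed to compound for three hours at 30 degrees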
- DETAILS: S. cerevisiae LAP4-GFP reporter, flow cytometry fluorescence; at 33 µM (top of the series)
Activity calls are given as the source filed them. No rule for the calls is given here.

I have this compound here, Cc1cc(C)nc(S/C=C/C(=O)c2ccccc2)n1 , and I need its recorded LAP4-GFP fluorescence (kMESF).
11 kMESF (inactive)

Subsequent entry: COc1ccc(N=Cc2nc(-c3ccccc3)oc2OC(=O)c2ccccc2)cc1
4.09 kMESF (inactive)

Subsequent entry: O=[N+]([O-])c1ccc(-c2cn3nc(-c4ccccc4)c(-c4ccccc4)nc3n2)cc1
9.37 kMESF (inactive)

Subsequent entry: Cc1ccc(N2C(=O)C(Cl)=C(Nc3c(C)n(C)n(-c4ccccc4)c3=O)C2=O)cc1
2.87 kMESF (inactive)

Subsequent entry: O=C(NNC(=S)NC(=O)C12CC3CC(CC(C3)C1)C2)c1ccncc1
15.7 kMESF (inactive)

---

- PROTOCOL SUMMARY: LAP4-GFP modulation potency in yeast, dose response, cell-based, MLPCN hits, flow cytometry (AID 2745);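 also: yeast exposed to compound for three hours at 30 degrees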
- DETAILS: S. cerevisiae LAP4-GFP reporter, flow cytometry fluorescence; at 33 µM (top of the series)
Activity calls are given as the source filed them. How the calls were made is not given here.
EXPERIMENTAL ENDPOINT: LAP4-GFP fluorescence (kMESF)

I have this molecule here, COc1cc(/C=C2\C(=O)ON=C2c2ccc(Cl)cc2)ccc1O , and I need its recorded LAP4-GFP fluorescence (kMESF).
9.12 kMESF (inactive)

Subsequent entry: O=C1C=C(c2ccc(Cl)cc2)C(=O)N1Nc1ccccc1
5.81 kMESF (inactive)

Subsequent entry: CC(C)Cn1c(=O)c(C(=O)Nc2ccncc2)c(O)c2ccccc21
2.36 kMESF (inactive)

Subsequent entry: O=C(O)c1cccc(S(=O)(=O)Nc2ccc(S(=O)(=O)N3CCOCC3)cc2)c1
3.38 kMESF (inactive)

Subsequent entry: COc1cc(NC(=O)c2ccc(C)cc2)ccc1NC(=O)c1cc2ccccc2o1
3.61 kMESF (inactive)

Subsequent entry: Cc1ccc(S(=O)(=O)Cc2cc(F)c([N+](=O)[O-])cc2[N+](=O)[O-])cc1
1.59 kMESF (inactive)

Subsequent entry: Nc1c(C(=O)c2cccs2)sc2nsc(SCCN3CCCCC3)c12
-1.87 kMESF (inactive)

Subsequent entry: COc1cc(/C=C2\CC/C(=C\c3cc(OC)c(O)c(OC)c3)C2=O)cc(OC)c1O
2.53 kMESF (inactive)

Subsequent entry: C#CCOCCOCCOCCNc1nc(N2CCN(C(=O)CCCCCCCCCCNC(=O)[C@H](CCCCN)n3cc(C)nn3)CC2)nc(N2CCN(C(=O)CCCCCCCCCCNC(=O)[C@H](CCCN=C(N)N)n3cc(C[C@@H](C)CC)nn3)CC2)n1
6.77 kMESF (inactive)

---

- PROTOCOL SUMMARY: LAP4-GFP modulation potency in yeast, dose response, cell-based, MLPCN hits, flow cytometry (AID 2745);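 also: yeast exposed to compound for three hours at 30 degrees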
- DETAILS: S. cerevisiae LAP4-GFP reporter, flow cytometry fluorescence; at 33 µM (top of the series)
The source made the active and inactive calls. How the calls were made is not given here.
EXPERIMENTAL ENDPOINT: LAP4-GFP fluorescence (kMESF)

I have this compound here, O=C(NOC(=O)c1ccccc1)c1ccccc1 , and I need its recorded LAP4-GFP fluorescence (kMESF).
10.6 kMESF (inactive)

Subsequent entry: C=CCN1C(=O)/C(=C/c2ccc(-c3ccc(F)cc3)o2)SC1=S
15 kMESF (inactive)

Subsequent entry: O=C(/C=C/c1cccc([N+](=O)[O-])c1)c1ccc([N+](=O)[O-])o1
2.78 kMESF (inactive)

Subsequent entry: COc1ccccc1[C@@]1(C)ON(c2ccccc2C(F)(F)F)C1=O
7.08 kMESF (inactive)

Subsequent entry: O=C(Sc1cccc2cccnc12)c1ccccc1Br
18.8 kMESF (inactive)

Subsequent entry: CN(C)C(=O)Oc1ccnc2cc(Cl)ccc12
2.83 kMESF (inactive)

Subsequent entry: C#CCOCCOCCOCCNc1nc(N2CCN(C(=O)CCCCCCCCCCNC(=O)[C@H](CCCCN)n3cc(CCCC(=O)O)nn3)CC2)nc(N2CCN(C(=O)CCCCCCCCCCNC(=O)[C@H](CCCN=C(N)N)n3cc(C[C@@H](C)CC)nn3)CC2)n1
5.16 kMESF (inactive)

Subsequent entry: COc1ccc(NC(=O)/C(C#N)=C/c2ncc([N+](=O)[O-])n2C)c(OC)c1
9.76 kMESF (inactive)

Subsequent entry: COc1ccc(N=Cc2nc(-c3ccccc3)oc2OC(C)=O)cc1
4.93 kMESF (inactive)
